test system: Cholinesterase (Equus caballus)
protocol: Inhibition of equine serum BuChE assessed as residual enzyme activity at 10 uM using S-butyrylthiocholine iodide as substrate and measured for 60 secs by spectrophotometric analysis relative to control
Format: cell-free
condition set: time 60.0 sec
measured endpoint: Ratio
Give bare numbers.

Previously resolved entries follow.
substance smiles	measured endpoint	observed value
C[N+](C)(C)CCNC(=O)[C@H](Cc1ccccc1)NC(=O)OCC1c2ccccc2-c2ccccc21.[I-]	Ratio	0.07
C[N+](C)(C)CCNC(=O)CNC(=O)OCC1c2ccccc2-c2ccccc21.[I-]	Ratio	0.36
CC(C)C[C@H](NC(=O)OCC1c2ccccc2-c2ccccc21)C(=O)NCC[N+](C)(C)C.[I-]	Ratio	0.21
CC(C)(C)OC(=O)NCCCC[C@H](NC(=O)OCC1c2ccccc2-c2ccccc21)C(=O)NCC[N+](C)(C)C.[I-]	Ratio	0.06
CC(C)(C)OC(=O)n1cc(C[C@H](NC(=O)OCC2c3ccccc3-c3ccccc32)C(=O)NCC[N+](C)(C)C)c2ccccc21.[I-]	Ratio	0.04

For the next question, use this compound.
Task: Give the reported Ratio for C[C@H](NC(=O)OCC1c2ccccc2-c2ccccc21)C(=O)NCC[N+](C)(C)C.[I-] (system: Cholinesterase (Equus caballus)).
Output: 0.44
